Target: SIK1 (Homo sapiens, UniProt P57059)
Construct: purchased Carna Biosciences 02-131
Sequence (P57059 whole entry): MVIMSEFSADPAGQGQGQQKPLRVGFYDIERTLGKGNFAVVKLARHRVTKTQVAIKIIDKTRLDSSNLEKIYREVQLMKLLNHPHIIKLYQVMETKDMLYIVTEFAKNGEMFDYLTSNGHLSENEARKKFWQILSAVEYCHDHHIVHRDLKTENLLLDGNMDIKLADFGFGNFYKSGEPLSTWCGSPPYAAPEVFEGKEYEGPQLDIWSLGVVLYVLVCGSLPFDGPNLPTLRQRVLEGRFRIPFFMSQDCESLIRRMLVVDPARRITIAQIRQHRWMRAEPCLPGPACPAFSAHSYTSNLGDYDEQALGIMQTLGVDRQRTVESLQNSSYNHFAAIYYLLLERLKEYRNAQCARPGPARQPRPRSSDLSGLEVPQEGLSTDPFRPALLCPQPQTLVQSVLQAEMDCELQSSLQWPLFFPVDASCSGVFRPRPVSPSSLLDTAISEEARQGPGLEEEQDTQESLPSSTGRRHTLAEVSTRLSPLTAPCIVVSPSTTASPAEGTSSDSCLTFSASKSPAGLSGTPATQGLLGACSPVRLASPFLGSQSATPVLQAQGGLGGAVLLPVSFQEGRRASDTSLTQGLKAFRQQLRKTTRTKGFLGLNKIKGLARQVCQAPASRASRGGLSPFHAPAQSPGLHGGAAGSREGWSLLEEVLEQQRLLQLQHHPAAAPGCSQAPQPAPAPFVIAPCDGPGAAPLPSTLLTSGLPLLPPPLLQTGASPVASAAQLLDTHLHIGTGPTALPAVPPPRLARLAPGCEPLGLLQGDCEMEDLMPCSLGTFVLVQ
Experiment: biochemical
Conditions: 33P radioactive SIK kinase assay, AMARA peptide, 10 μM ATP; read-out: SIK1 IC50
Protocol: The principle of the ^33P radioactive kinase assay consists in measuring the incorporated ^33P into the substrate AMARA peptide when phosphorylated by SIK1, SIK2 or SIK3 using [^33P]-g-ATP, which correlates with kinase activity. […] After harvesting the kinase reactions, the filter plates are washed 6 times with phosphoric acid (75 mM). […] The top of the plates are sealed with TopSeal-A. Read-out is performed with a TopCount instrument (PerkinElmer Inc.).
pIC50: −log10 of the molar value.
Assay Endpoint: pIC50

# Compound, Test System, pIC50
data = [
    ("CCNC(=O)c1c(OC)cc(-n2cnc3cc(-c4cnn(CCN5CCOCC5)c4)ccc32)cc1OC(F)F", "SIK1 (Homo sapiens, UniProt P57059)", "7.00 to 8.00"),
    ("COc1cc(-n2cnc3cc(-c4cnn(C)c4)ccc32)cc(OC)c1C(=O)NCC#N", "SIK1 (Homo sapiens, UniProt P57059)", "7.00 to 8.00"),
    ("COc1cc(-c2cnc3cc(-c4cnccc4C#N)ccn23)cc(OC)c1C(=O)NCC(F)(F)F", "SIK1 (Homo sapiens, UniProt P57059)", "< 6.30"),
]

Quick one: pIC50 of COc1cc(-n2cnc3cc(-c4cnn(C)c4)ccc32)cc(OC)c1C(=O)NC1CCC1 ?
7.00 to 8.00

Lookup COc1cc(-n2cnc3cc(-c4cnn(C)c4)ccc32)cc(OC)c1C(=O)NCC(C)C
7.00 to 8.00

Lookup COc1cc(-c2cnc3cc(-c4cnn(CC(=O)OC5CCOC5)c4)ccn23)cc(OC)c1C(=O)NCC(F)(F)F (centres unmarked)
8.00 to 11.00

Lookup COc1cc(-n2cnc3cc(-c4cnn(C5CCNCC5)c4)ccc32)cc(OC)c1C(=O)NCC(F)(F)F
8.00 to 11.00

Lookup COc1cc(-n2cnc3cc(-c4cnn(C)c4)ccc32)cc(OC)c1C(=O)N1CC(C2CCOCC2)C1
6.30 to 7.00

###

System: LPS-induced TNFα secretion in monocyte-derived macrophages (MdM)
Assay: MdM assay: LPS-triggered TNFα (ELISA)
Assay type: cell-based, human
Conditions: Homo sapiens, Macrophage, LPS-triggered TNFα inhibition
pEC50: −log10 of the molar value.
pEC50 by entry:

These solved cases illustrate the format of a correct answer.
# Molecule, Recorded Value
data = [
    ("COc1cc(-c2cnc3cc(-c4cnn(C)c4)ccn23)cc(F)c1C(=O)NCC(F)(F)F", "7.00 to 10.00"),
    ("CCn1cc(-c2cnc3c(-c4cc(OC)c(C(=O)NCC(F)F)c(OC)c4)cnn3c2)cn1", "6.00 to 7.00"),
    ("COc1cc(-c2cnc3cc(-c4cc(C)no4)ccn23)cc(OC)c1C(=O)N[C@H](C)C(F)(F)F", "6.00 to 7.00"),
    ("COc1cc(-n2cnc3cc(-c4cnn(C)c4)ccc32)cc(OC)c1C(=O)NC1CC1", "7.00 to 10.00"),
    ("COc1cc(-c2cnc3cc(-c4cnn(C)c4)ccn23)cc(OC)c1C(=O)N[C@@H](C)C(F)(F)F", "6.00 to 7.00"),
    ("COc1cc(-c2cnc3cc(-c4cnn(C(C)C(=O)O)c4)ccn23)cc(OC)c1C(=O)NCC(F)(F)F (stereo not shown)", "< 5.30"),
    ("COc1cc(-n2cnc3cc(-c4cnn(C)c4)ccc32)cc(OC)c1C(=O)N1CC(C#N)C1", "6.00 to 7.00"),
    ("COc1cc(-n2cnc3cc(-c4cnn(C)c4)ccc32)cc(OC)c1C(=O)N[C@@H]1C[C@@H]1C(F)F", "6.00 to 7.00"),
    ("COc1cc(-c2cnc3cc(-c4cnn(C)c4)cnn23)cc(OC)c1C(=O)NC1CC1", "7.00 to 10.00"),
    ("CCNC(=O)c1c(OC)cc(-c2cnc3cc(-c4ccc(C#N)nc4)ccn23)cc1OC(F)F", "6.00 to 7.00"),
]

Form entry - test system: LPS-induced TNFα secretion in monocyte-derived macrophages (MdM); read-out: pEC50; molecule: CCOC(=O)Cn1cc(-c2ccn3c(-c4cc(OC)c(C(=O)NCC(F)(F)F)c(OC)c4)cnc3c2)cn1
7.00 to 10.00

Lookup COc1cc(-n2cnc3cc(-c4cnn(C)c4)ccc32)cc(OC)c1C(=O)N[C@@H]1CC[C@H]1O
6.00 to 7.00

Lookup COc1cc(-n2cnc3cc(-c4cnn(CC(C)C)c4)ccc32)cc(OC)c1C(=O)NCC(F)(F)F
6.00 to 7.00

Lookup CCNC(=O)c1c(OC)cc(-n2cnc3cc(-c4cnn(C)c4)cnc32)cc1OC(F)F
6.00 to 7.00

Lookup COc1cc(-c2cnn3cc(-c4cnn(C)c4)cnc23)cc(OC)c1C(=O)NCC(F)F
6.00 to 7.00

Lookup CCOc1cncc(-c2ccn3c(-c4cc(OC)c(C(=O)NCC(F)(F)F)c(OC)c4)cnc3c2)c1
7.00 to 10.00
